Taken from patent US10392383B2.

Tested on: IL-6 (THP-1 cells)
Experiment: IL-6 inhibition in LPS-stimulated THP-1 monocytes (HTRF)
Type: cell-based
Conditions: Homo sapiens, 500 ng/mL LPS, IL-6 HTRF, Table 6
Threshold 700 nM. EC50 below it: Met. EC50 at it or above: Not met.

Record excerpt, results attached:
[[record]]
compound = "Cc1cn(-c2cccc3[nH]c(-c4n[nH]c5ccc(-c6cncc(OCCN(C)C)c6)nc45)nc23)cn1 [Compound 627]"
target_of_assay = "IL-6 (THP-1 cells)"
class_name = "Not met"

[[record]]
compound = "c1csc(-c2cccc3[nH]c(-c4n[nH]c5ccc(-c6ccncc6)nc45)nc23)c1 [Compound 354]"
target_of_assay = "IL-6 (THP-1 cells)"
class_name = "Not met"

[[record]]
compound = "c1ccc2[nH]c(-c3n[nH]c4ccc(-c5cn[nH]c5)nc34)nc2c1 [Compound 651]"
target_of_assay = "IL-6 (THP-1 cells)"
class_name = "Not met"

[[record]]
compound = "c1ccc(-c2ccc3[nH]nc(-c4nc5ccccc5[nH]4)c3n2)nc1 [Compound 280]"
target_of_assay = "IL-6 (THP-1 cells)"
class_name = "Met"

[[record]]
compound = "Nc1cncc(-c2ccc3[nH]nc(-c4nc5c(-c6ccccc6F)cccc5[nH]4)c3n2)c1 [Compound 59]"
target_of_assay = "IL-6 (THP-1 cells)"
class_name = "Met"

[[record]]
compound = "Cc1ccncc1-c1ccc2[nH]nc(-c3nc4c(-c5ccsc5)cccc4[nH]3)c2n1 [Compound 285]"
target_of_assay = "IL-6 (THP-1 cells)"
class_name = "Not met"

[[record]]
compound = "Cc1cn(-c2cccc3[nH]c(-c4n[nH]c5ccc(-c6cncc(NC(=O)C7CCC7)c6)nc45)nc23)cn1 [Compound 217]"
target_of_assay = "IL-6 (THP-1 cells)"
class_name = "Not met"

[[record]]
compound = "CC(C)Nc1cncc(-c2ccc3[nH]nc(-c4nc5c(-c6cccnc6)cccc5[nH]4)c3n2)c1 [Compound 96]"
target_of_assay = "IL-6 (THP-1 cells)"
class_name = "Not met"

[[record]]
compound = "CN(C)c1cncc(-c2ccc3[nH]nc(-c4nc5c(-c6cccc(F)c6)cccc5[nH]4)c3n2)c1 [Compound 7]"
target_of_assay = "IL-6 (THP-1 cells)"
class_name = "Not met"

[[record]]
compound = "c1cncc(-c2cccc3[nH]c(-c4n[nH]c5ccc(-c6cncc(OC7CCCCC7)c6)nc45)nc23)c1 [Compound 559]"
target_of_assay = "IL-6 (THP-1 cells)"
class_name = "Met"


**Query** In plain terms, does COc1cccc(-c2cccc3[nH]c(-c4n[nH]c5ccc(-c6cncc(O)c6)nc45)nc23)c1 [Compound 1030] come in under 700 nM for EC50?
**Result** Met

**Query** Queued: CN(C)Cc1cncc(-c2ccc3[nH]nc(-c4nc5c(-c6cccc(F)c6)cccc5[nH]4)c3n2)c1 [Compound 13]
**Result** Not met

**Query** Check Cc1cn(-c2cccc3[nH]c(-c4n[nH]c5ccc(-c6cncc(NC(=O)C(C)(C)C)c6)nc45)nc23)cn1 [Compound 204] too.
**Result** Not met

**Query** Same question, CCCCC(=O)Nc1cncc(-c2ccc3[nH]nc(-c4nc5c(-c6cc(F)cc(NCCN(C)C)c6)cccc5[nH]4)c3n2)c1 [Compound 467] this time
**Result** Not met

**Query** How about this compound: CN(C)Cc1cncc(-c2ccc3[nH]nc(-c4nc5c(-c6cccs6)cccc5[nH]4)c3n2)c1 [Compound 349]
**Result** Not met
